# Test: qHTS Assay for Lipid Storage Modulators in Drosophila S3 Cells;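 for cell number change: cells counted by Cell Tracker Red CMTPX staining in the red channel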
# Details: BODIPY lipid droplet fluorescence, 18-24 h, cells fed with added oleic acid; measured here: cell count max response
About 2,100 (0.66%) of roughly 320,000 compounds were called active. Another 53% or so got no clear call; they are omitted. This excerpt belongs to a sample that is enriched for actives.
Please enter True where cell number change is greater than or equal to -10%, and False where it is lower.

Compound | Class Assignment
NC(=O)CN1C(=O)C(O)(CC(=O)/C=C\c2ccc3c(c2)OCO3)c2ccccc21 (stereo unspecified) | True
Cc1cccc(C)c1NC(=O)CS(=O)CC(=O)NCC1OCCc2ccccc21 (stereo unspecified) | True
O=C(/C=C\c1ccc2c(c1)OCO2)CC1(O)C(=O)Nc2ccccc21 (stereo unspecified) | True
CN1C(=O)C(O)(CC(=O)/C=C\c2ccc3c(c2)OCO3)c2ccccc21 (stereo unspecified) | False
Cc1ccc(CN2CCN(CC(C)C)C(CCO)C2)s1 (stereo unspecified) | True

Attention now turns to another entry.
q: Please tell me: is the compound CCOC(=O)C(CCCOc1cccc(OC)c1)C(=O)OCC at or over -10% in terms of cell number change?
a: False

----------
# Test: qHTS Assay for Lipid Storage Modulators in Drosophila S3 Cells
# Details: BODIPY lipid droplet fluorescence, 18-24 h, cells fed with added oleic acid; series mostly up to 46.1 µM
Hit rate of the full screen: of about 320,000 compounds, about 2,100 (0.66%) were called active. Not shown: some 53% with an inconclusive outcome. Calls come from the whole dose curve; as a rule, active = well fitted inhibition curve with a large enough effect in the signal ratio, with a control signal flat (not every such curve was filed as active); inconclusive = small, poorly fitted or top-dose-only effect, or effect the other way, or a change in a side signal; inactive = flat fitted curve, though single readings scatter; the % refers to the signal ratio. For the sample, actives were picked, then their nearest neighbours and some compounds at random.
Answer with one of the outcomes label 1 for active, label 0 for inactive

// known answers, use as guide
Molecule | Class Assignment
COc1ccc(OCCCn2ccnc2)cc1 | label 0
Cc1ccc2nc(/C(C#N)=C/c3ccccc3C(=O)O)[nH]c2c1 | label 0
CCC(=O)Nc1ccc(/C=C(\C(C)=O)C(=O)c2ccccc2)cc1 | label 0
CCc1ccc(OCCCCCn2ccnc2)cc1 | label 1
c1ccc(Cc2ccc(OCCn3ccnc3)cc2)cc1 | label 1
N#C/C(=C\c1ccc(-c2ccccc2C(=O)O)o1)c1nc2ccccc2[nH]1 | label 0
Cc1nc2cc(NC(=O)C3COc4ccccc4O3)ccc2s1 (stereo unspecified) | label 0
Cc1ccc2nc(/C(C#N)=C/c3cn[nH]c3-c3ccc(F)cc3)[nH]c2c1 | label 0

q: State the result this test recorded for COc1ccc(/C=C(\C#N)c2nc3ccc(C)cc3[nH]2)cc1Oc1ccc(C(F)(F)F)cc1[N+](=O)[O-] .
a: label 1

q: Could you check what this test reported for Cc1ccc2nc(/C(C#N)=C\c3ccc(Oc4ccc(C(F)(F)F)cc4[N+](=O)[O-])cc3)[nH]c2c1 ?
a: label 0

q: Returns: the outcome recorded for N#C/C(=C(/O)c1ccc([N+](=O)[O-])o1)c1nc2ccccc2[nH]1 in this assay.
a: label 0

----------
# Test: qHTS Assay for Lipid Storage Modulators in Drosophila S3 Cells
# Details: BODIPY lipid droplet fluorescence, 18-24 h, cells fed with added oleic acid; series mostly up to 46.1 µM
Screen size: about 320,000 compounds; about 2,100 (0.66%) were called active. Inconclusive results (about 53%) are left out. Calls follow the shape of the dose curve; as a rule, active = well fitted inhibition curve with a large enough effect in the signal ratio, with a control signal flat (not every such curve was filed as active); inconclusive = small, poorly fitted or top-dose-only effect, or effect the other way, or a change in a side signal; inactive = flat fitted curve, though single readings scatter; the % refers to the signal ratio. Only a selection was taken, and actives are over-represented in it overall.
Pick from Y (active), N (inactive) when you respond.

Here's what some known entries look like.
Compound | Class Assignment
CC(C)(C)NC(=O)c1cc(-c2ccccc2)n[nH]1 | N
Cc1ccc(C(=O)N2CCC(Cc3ccccc3)CC2)cc1[N+](=O)[O-] | N
CCOC(=O)Cc1csc(NC(=S)NC(=O)c2ccc(F)cc2)n1 | Y
O=C(CCc1ccccc1)NC(NC(=S)Nc1ccc(Br)cc1)C(Cl)(Cl)Cl (stereo not given) | N
Cc1ccc(/C=C2\SC(=S)N(CCCC(=O)NNC(=O)c3ccccc3O)C2=O)cc1 | N

Let's switch to this compound now.
q: Record lookup: outcome of this test for COc1ccccc1N(C)S(=O)(=O)c1ccc(C(=O)O)cc1 ?
a: N

----------
# Test: qHTS Assay for Lipid Storage Modulators in Drosophila S3 Cells; note: potency is the fitted concentration of half-maximal effect
# Details: BODIPY lipid droplet fluorescence, 18-24 h, cells fed with added oleic acid; series mostly up to 46.1 µM
# Excerpt: NIH Molecular Libraries Probe Production Centers Network [MLPCN] NIH Chemical Genomics Center [NCGC] […] Triacsin C (Sigma-Aldrich T-4540), an inhibitor of long-chain fatty acyl CoA synthetase that blocks synthesis of triglycerides, was used as a positive control for lipid under-storage. […] Fluorescence was detected by excitation of the fluorophores with a 488-nm laser on an Acumen Explorer (TTP Lab Tech). […] Cells were detected using channel 3 (575-640 nm) with 5-um width and 100-um depth filters. […]
Screen size: about 320,000 compounds; about 2,100 (0.66%) were called active. About 53% were inconclusive and are not listed. The sample holds actives, similar compounds and a random draw of the others, so the mix is not that of the screen.
Value Type: Potency

Molecule | Recorded Value
COc1ccc(-c2csc3ncnc(N4CCN(S(=O)(=O)c5ccccc5C#N)CC4)c23)cc1 | 7.31 µM (active)
Cc1nc(N2CCCCC2)c2c(-c3cccs3)csc2n1 | inactive
Cc1ccc(-c2csc3ncnc(N4CCN(c5ccccc5O)CC4)c23)cc1 | inactive
c1ccc(-c2csc3ncnc(N4CCOCC4)c23)cc1 | inactive
O=C(NNC(=O)c1ccc(Br)s1)NC1CCCCC1 | inactive

q: State the recorded Potency for this entry: O=C1C2C(C(=O)N1CCc1ccccc1)C1C=CC2C12CC2 (configuration not stated)
a: 23.1 µM (active)

q: Potency lookup needed for C=CCSc1nc(C)cc2c1C(=O)OC2 , thanks.
a: inactive

q: Requested field: Potency. Item: CSc1nnc(-c2ccccc2)n1C
a: inactive

q: Reported Potency, molecule O=C(NCc1ccc(F)cc1)C1CC(=O)N(CCc2ccccc2)C1 (configuration not stated) : ____
a: inactive

q: So what's the measured Potency for this one? O=C(CC(Sc1ccc(Br)cc1)C(=O)O)c1ccc(F)cc1 (configuration not stated)
a: inactive

q: Need Potency of CSc1nnc(-c2sc3cc(Cl)ccc3c2Cl)n1C , thanks.
a: 23.1 µM (active)

q: Endpoint output: Potency of CCn1c(SC)nnc1-c1sc2cc(Cl)ccc2c1Cl . Value?
a: inactive

----------
# Test: qHTS Assay for Lipid Storage Modulators in Drosophila S3 Cells;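 for cell number change: cells counted by Cell Tracker Red CMTPX staining in the red channel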
# Details: BODIPY lipid droplet fluorescence, 18-24 h, cells fed with added oleic acid; measured here: cell count max response
In all, about 320,000 compounds went through this assay and about 2,100 (0.66%) were called active. Inconclusive results (about 53%) are left out. Only a selection was taken, and actives are over-represented in it overall.
Value Type: cell number change (%)
Hi! Could you send only the number? It should be in %, unit omitted.

q: What value of cell number change has been reported for the following molecule? CC(C)(C)C1CCC(C(=O)Nc2ccc(N3CCOCC3)cc2N2CCOCC2)CC1 (stereo unspecified)
a: 2.76

q: Look up cell number change: CCOc1cccc(/C(O)=C2/C(=O)C(=O)N(CCOC)C2c2ccco2)c1 (stereo unspecified)
a: 3.12

q: # input molecule: S=C(NCC1CCCO1)NC12CC3CC(CC(C3)C1)C2 (stereo unspecified) ; wanted: its cell number change
a: 5.13

q: // returns reported cell number change for input CC12CN3CCN(CC(C3)C1(O)CN1CCOCC1)C2 (stereo unspecified)
a: 0.875

q: Recorded cell number change for CC(C)(C)C(=O)N1CCN(c2ccc(NC(=O)c3ccc4c(c3)OCCO4)cc2)CC1 , please?
a: -3.48

q: For the molecule O=C(Nc1ccccc1Cl)Nc1ccccc1Cl , what cell number change is on record?
a: -0.979

q: Look up cell number change: Cc1nc2oc3ccc(F)cc3c(=O)c2cc1C(=O)O
a: 9.45

q: Which value of cell number change has been reported for Cc1cc(C)c(NC(=S)N2CCC(N(C)CC3CCCO3)CC2)c(C)c1 (stereo unspecified) in the records?
a: 6.74

q: Fill blank: measured cell number change of the molecule COc1ccccc1C(=O)NC(=O)COC(=O)c1oc2ccccc2c1C is ____.
a: 20

q: // returns reported cell number change for input COc1ccccc1OCC(=O)Nc1ccc(NC(=O)COc2ccccc2OC)cc1
a: -9.29

q: Need cell number change of Nc1ncc2c(n1)CCN(c1ccc([N+](=O)[O-])cc1)C2 , thanks.
a: -20.7

q: So what does the record say about cell number change for O=C(NC(=S)Nc1ccc(S(=O)(=O)Nc2nccs2)cc1)c1ccccc1F ?
a: 13

----------
# Test: qHTS Assay for Lipid Storage Modulators in Drosophila S3 Cells; note: potency is the fitted concentration of half-maximal effect
# Details: BODIPY lipid droplet fluorescence, 18-24 h, cells fed with added oleic acid; series mostly up to 46.1 µM
Screen size: about 320,000 compounds; about 2,100 (0.66%) were called active. Not shown: some 53% with an inconclusive outcome. The sample holds actives, similar compounds and a random draw of the others, so the mix is not that of the screen.
Value Type: Potency

// below: answered molecules
Molecule | Potency
CN(C(=O)c1ccc(F)c(S(=O)(=O)N2CCOCC2)c1)C1CCCCC1 | inactive
O=C(NC(=S)NCc1ccco1)c1ccccc1 | inactive
N=c1c(C(=O)NCCN2CCOCC2)cc2c(=O)n3ccccc3nc2n1CCCN1CCOCC1 | 7.31 µM (active)
Fc1ccccc1CNc1ccc(Cl)cc1 | inactive
COc1ccc(C(=O)OCc2ccc(C)cc2)cc1S(=O)(=O)N1CCOCC1 | inactive

q: // Potency lookup, key: COc1ccc(CCNC(=O)c2cc3c(=O)n4ccccc4nc3n(CCCN3CCOCC3)c2=N)cc1OC
a: inactive

q: Which value of Potency has been reported for COc1ccc(CNC(=O)c2ccc(Cl)c(S(=O)(=O)N3CCOCC3)c2)cc1OC in the records?
a: 1.64 µM (active)

q: Which measured Potency value corresponds to COc1ccc(C(=O)N2CCCC2)cc1S(=O)(=O)N1CCOCC1 ?
a: 7.31 µM (active)

q: So what's the measured Potency for this one? COc1ccc(C(=O)OCc2cc(C)ccc2C)cc1S(=O)(=O)N1CCCC1
a: 0.082 µM (active)

q: If you can, please state the reported Potency value of O=C(NCc1ccncc1)c1ccc(Cl)c(S(=O)(=O)N2CCOCC2)c1 .
a: inactive

q: Data request, read-out Potency, for N=c1c(S(=O)(=O)c2ccc(Cl)cc2)cc2c(=O)n3ccccc3nc2n1C1CCCC1
a: 13 µM (active)

q: So what does the record say about Potency for COc1ccc(CCNC(=O)c2cc3c(=O)n4ccccc4nc3n(Cc3ccco3)c2=N)cc1OC ?
a: inactive

q: Item CCN=C1S/C(=C/c2ccc(-c3ccc(Cl)cc3C(=O)O)o2)C(=O)N1CC has what recorded Potency?
a: inactive

q: // query Potency value for entry Cc1ccc(S(=O)(=O)c2cc3c(=O)n4ccccc4nc3n(C3CCCC3)c2=N)cc1
a: inactive

q: If you can, please state the reported Potency value of CCN=C1S/C(=C\c2ccc(Sc3ccc(Cl)cc3)o2)C(=O)N1CC .
a: inactive

q: Please give the measured Potency for this molecule: N=c1c(C(=O)NCCc2ccccc2)cc2c(=O)n3ccccc3nc2n1CCCN1CCOCC1
a: 6.51 µM (active)

q: // lookup Potency for N=c1c(C(=O)NCc2ccco2)cc2c(=O)n3ccccc3nc2n1Cc1ccccc1
a: inactive
